Reported values of GI50 for individual entries
- Test system: HOP-62
- experiment: Anticancer activity against human HOP62 cells after 48 hrs
- Type: functional
- assay-conditions: HOP-62, 48 h

{"columns": ["compound", "GI50"],
 "data": [
  ["Cc1cc(O)c(C2=NN(c3ccc(S(N)(=O)=O)cc3)C(c3ccccc3O)C2)cc1Cl (centres undefined)", "1.93 µM"],
  ["COc1ccc(C2CC(c3cc(Cl)c(C)cc3O)=NN2c2ccc(S(N)(=O)=O)cc2)cc1OC (centres undefined)", "3.92 µM"],
  ["Cc1cc(O)c(C2=NN(c3ccc(S(N)(=O)=O)cc3)C(c3ccccc3Cl)C2)cc1Cl (centres undefined)", "2.03 µM"],
  ["Cc1cc(O)c(C2=NN(c3ccc(S(N)(=O)=O)cc3)C(/C=C/c3ccccc3)C2)cc1Cl (centres undefined)", "3.94 µM"]
]}

---

Reported values of LC50 (concentration killing 50% of initial cells) for individual entries
- Tested on: NCI-H23
- experiment: Anticancer activity against human NCI-H23 cells after 48 hrs
- Assay type: functional
- assay-conditions: NCI-H23, 48 h
property-measured: LC50 (concentration killing 50% of initial cells) (µM)

{"columns": ["molecule", "system", "relation-operator", "observed"],
 "data": [
  ["COc1ccc(C2CC(c3cc(Cl)c(C)cc3O)=NN2c2ccc(S(N)(=O)=O)cc2)cc1OC (centres undefined)", "NCI-H23", ">", 100],
  ["Cc1cc(O)c(C2=NN(c3ccc(S(N)(=O)=O)cc3)C(c3ccccc3O)C2)cc1Cl (centres undefined)", "NCI-H23", "=", 16],
  ["Cc1cc(O)c(C2=NN(c3ccc(S(N)(=O)=O)cc3)C(/C=C/c3ccccc3)C2)cc1Cl (centres undefined)", "NCI-H23", "=", 35.4],
  ["Cc1cc(O)c(C2=NN(c3ccc(S(N)(=O)=O)cc3)C(c3ccccc3Cl)C2)cc1Cl (centres undefined)", "NCI-H23", "=", 7.13]
]}

---

Reported values of TGI for individual entries
- Tested on: SK-MEL-28
- experiment: Anticancer activity against human SK-MEL-28 cells after 48 hrs
- Type: functional
- assay-conditions: SK-MEL-28, 48 h

{"columns": ["molecule", "TGI"],
 "data": [
  ["Cc1cc(O)c(C2=NN(c3ccc(S(N)(=O)=O)cc3)C(c3ccccc3Cl)C2)cc1Cl (centres undefined)", "12.3 µM"],
  ["Cc1cc(O)c(C2=NN(c3ccc(S(N)(=O)=O)cc3)C(c3ccccc3O)C2)cc1Cl (centres undefined)", "13.5 µM"],
  ["COc1ccc(C2CC(c3cc(Cl)c(C)cc3O)=NN2c2ccc(S(N)(=O)=O)cc2)cc1OC (centres undefined)", "17.7 µM"],
  ["Cc1cc(O)c(C2=NN(c3ccc(S(N)(=O)=O)cc3)C(/C=C/c3ccccc3)C2)cc1Cl (centres undefined)", "23.8 µM"]
]}

---

- System: OVCAR-5
- experiment: Anticancer activity against human OVCAR5 cells after 48 hrs
- Assay type: functional
- assay-conditions: OVCAR-5, 48 h
property-measured: TGI (µM)

{"columns": ["compound", "property-measured", "observed"],
 "data": [
  ["COc1ccc(C2CC(c3cc(Cl)c(C)cc3O)=NN2c2ccc(S(N)(=O)=O)cc2)cc1OC (centres undefined)", "TGI", 6.36],
  ["Cc1cc(O)c(C2=NN(c3ccc(S(N)(=O)=O)cc3)C(c3ccccc3O)C2)cc1Cl (centres undefined)", "TGI", 3.75],
  ["Cc1cc(O)c(C2=NN(c3ccc(S(N)(=O)=O)cc3)C(/C=C/c3ccccc3)C2)cc1Cl (centres undefined)", "TGI", 14.7],
  ["Cc1cc(O)c(C2=NN(c3ccc(S(N)(=O)=O)cc3)C(c3ccccc3Cl)C2)cc1Cl (centres undefined)", "TGI", 3.3]
]}
